- Tested on: MDA-MB-231 breast
- assay summary: NCI tumour cell line growth inhibition, 48 h
Below is a list of entries, each paired with its recorded TGI value.
Only the number, expressed in µM, is required.

Check out these entries, answers already filled in.
| compound | TGI, µM |
| --- | --- |
| NC(CSC(c1ccccc1)(c1ccccc1)c1ccc2c(c1)OCO2)C(=O)O (stereo unspecified) | 14.4 |
| CC(=O)[O][Hg][c]1c(N)c(C)cc(C)c1F | 2.64 |

// moving on: another record for TGI
# input Lab request: please report TGI under test system MDA-MB-231 breast for O=C(Nc1ccc(I)cc1)c1cc([N+](=O)[O-])ccc1O
# output 53.1

----------
Below is a list of entries, each paired with its recorded TGI value.
- Test system: SK-MEL-2 melanoma
- assay summary: NCI tumour cell line growth inhibition, 48 h
Only the number, expressed in µM, is required.

Check out these entries, answers already filled in.
| compound structure | scale unit | TGI |
| --- | --- | --- |
| CCCCCCCC(=O)SCC/C=C/[C@@H]1CC(=O)NCc2cccc(n2)C2=N[C@@](C)(CS2)C(=O)N[C@@H](C(C)C)C(=O)N1 | µM | 15.6 |
| Cc1sc(Nc2ccc(Nc3nc(-c4ccccc4)c(C)s3)cc2)nc1-c1ccccc1 | µM | 76.4 |
| NC(N)=Nc1ccc(-c2ccc(N=C(N)N)cc2)cc1 | µM | 99.7 |

# input TGI for O=C1C=Cc2c(Br)sc(Br)c21 ?
# output 70.3

# input For CCN(CC)c1ccc2cc(C(N)=O)c(=N)oc2c1 then?
# output 54.1

----------
- Tested on: SK-MEL-2 melanoma
- assay summary: NCI tumour cell line growth inhibition, 48 h
quantity measured: GI50

Check out these entries, answers already filled in.
| molecule | quantity measured | value measured |
| --- | --- | --- |
| Clc1cccc(Cc2cn3cc(-c4ccccc4)nc3s2)c1Cl | GI50 | 22.3 µM |
| CC(C)c1ccc(C(C)C(=O)N(CC2=C(C(C)c3ccccn3)c3ccccc3C2)C(C)C)cc1 (stereo unspecified) | GI50 | 2.55 µM |
| CCOc1ccccc1-n1c(CN2CCN(C(=O)COc3ccc(CNCCCCCCN4C5CCCC4CC(OC(=O)Nc4cc(C)ccc4OC)C5)cc3)CC2)nc2ccccc2c1=O (stereo unspecified) | GI50 | 1.99 µM |
| O=C(NCCNc1nccc(-c2c(-c3cccc(O)c3)nc3sccn23)n1)c1ccccc1O | GI50 | 1.59 µM |
| O=C(Nc1ccc(I)cc1)c1cc([N+](=O)[O-])ccc1O | GI50 | 3.54 µM |

# input GI50 for O=[N+]([O-])c1cnc(Sc2ccncn2)s1 ?
# output 7.99 µM

----------
Below is a list of entries, each paired with its recorded TGI value.
- System: LOX IMVI melanoma
- assay summary: NCI tumour cell line growth inhibition, 48 h

| compound | system under test | TGI |
| --- | --- | --- |
| CC(=O)C(CN(C(C)C)C(C)C)C(c1ccccc1)c1c(O)c2ccccc2oc1=O (stereo not drawn) | LOX IMVI melanoma | > 100 µM |
| O=C(Nc1ccc(I)cc1)c1cc([N+](=O)[O-])ccc1O | LOX IMVI melanoma | 61 µM |
| COC(=O)Nc1nc2ccc(S(=O)c3ccccc3)cc2[nH]1 (stereo not drawn) | LOX IMVI melanoma | > 100 µM |

# input TGI for O=C1C2=C(SCCS2)C(=O)c2ccccc21 ?
# output 2.27 µM

# input For NC(CCCCCCCCCCP(=O)(O)O)C(=O)O (stereo not drawn) then?
# output > 100 µM

# input For CCOC(=O)C(Sc1ccccc1)c1c(OC)cc(=O)oc1/C=[N+](/[O-])c1ccc(N(C)C)cc1 (stereo not drawn) then?
# output 26.6 µM

# input For COc1cc2c(c(OC)c1O)C(=O)C(OC)C(c1ccc(O)c(O)c1)O2 (stereo not drawn) then?
# output > 100 µM

# input For CO[C@]1(c2ccc([N+](=O)[O-])cc2)Oc2ccccc2C(=O)[C@@]1(Nc1ccc(C=O)cc1)OC then?
# output > 10 µM
